# System: ACHN renal
# Assay info: NCI-60 one-dose screen, 48 h (100 = growth as untreated, 0 = no growth, -100 = all killed)
# Protocol conditions: 10 µM unless noted
The panel holds about 83,000 compounds, 20% with a hit somewhere; the sample as a whole holds those more often.
Measure name: growth (%)
Give just the numeric value; % need not be written.

[
  {
    "Sample smiles": "O=C(Nc1cccnc1Nc1ccc(F)cc1)c1cn(Cc2cccc(Oc3ccccc3)c2)nn1",
    "Value units": "%",
    "growth": 83.7
  },
  {
    "Sample smiles": "C=CCn1c(SCC(=O)NCc2cc(C)c(O)c(C)c2)nc2ccc(Cl)cc2c1=O",
    "Value units": "%",
    "growth": 98.9
  },
  {
    "Sample smiles": "O=C1/C(=C/c2ccc(-c3ccc(Br)cc3)o2)SC(=S)N1CCc1ccc(O)cc1",
    "Value units": "%",
    "growth": 83.9
  },
  {
    "Sample smiles": "Cc1ccc(Sc2oc(-c3ccc(C)cc3)nc2[P+](c2ccccc2)(c2ccccc2)c2ccccc2)cc1",
    "Value units": "%",
    "growth": -6.75
  }
]

Then this molecule:
Note to self: growth recorded for "CCNc1nc(-c2ccc(Cl)c(OC)c2)c(-c2ccnc(NCCCNS(=O)(=O)c3ccc(Cl)cc3)n2)s1" was 74.1

---

// values below are reported growth
# System: NCI-H23 lung
# Assay info: NCI-60 one-dose screen, 48 h (100 = growth as untreated, 0 = no growth, -100 = all killed)
# Protocol conditions: 10 µM unless noted
# Protocol: Growth inhibition of the NCI-H23 human Non-Small Cell Lung tumor cell line is measured as a screen for anti-cancer activity. Cells are grown in 96 well plates and exposed to the test compound for 48 hours. Compounds are tested at a single concentration, which is 10^-5 M for most compounds. The reported endpoint is percent growth (GI% or GIPRCNT), where numbers from 0 - 100% represent growth inhibition, and numbers from -100% - 0 represent cell death. […]
The panel holds about 83,000 compounds, 20% with a hit somewhere; the sample as a whole holds those more often.
Give just the numeric value; % need not be written.

Note to self: growth recorded for "O=C(/C=C/c1cn(-c2ccccc2)nc1-c1ccc([N+](=O)[O-])cc1)c1ccc(Cl)cc1" was 48.4

Note to self: growth recorded for "COc1cc(CNS(=O)(=O)c2ccc(C)cc2)ccc1OCc1cn(-c2ccc(Br)cc2)nn1" was 103

Note to self: growth recorded for "COc1ccc(-c2nn(-c3ccccc3)cc2/C=C2/SC(=S)N(C)C2=O)cc1" was 94.5

Note to self: growth recorded for "O=C(/C=C/c1cccs1)c1ccc(Cl)nc1" was 102

Note to self: growth recorded for "COc1cc(CNC(=O)CCCC/C=C/C(C)C)ccc1OCc1nnc(Nc2ccc([N+](=O)[O-])cc2)o1" was 54.9

---

// values below are reported growth
# Test system: SK-OV-3 ovarian
# Assay info: NCI-60 one-dose screen, 48 h (100 = growth as untreated, 0 = no growth, -100 = all killed)
# Protocol conditions: 10 µM unless noted
The panel holds about 83,000 compounds, 20% with a hit somewhere; the sample as a whole holds those more often. Calls of active or inactive are those of the source. Rule for the calls: active = growth percent below 10; inactive = the rest.

Please review the entries below; each comes with its answer.
[
  {
    "Compound": "COc1ccc(C(=O)Nc2cccc(C3CC(=O)c4c(cc(OC)c(OC)c4OC)O3)c2)cc1 (centres undefined)",
    "Tgt": "SK-OV-3 ovarian",
    "growth": "20.6% (inactive)"
  },
  {
    "Compound": "O=C(Cn1c2c(c3ccccc31)CCCC2)Nc1ccc(-c2nc3ccccc3s2)cc1",
    "Tgt": "SK-OV-3 ovarian",
    "growth": "114% (inactive)"
  },
  {
    "Compound": "CCn1c(=S)sc2c(Nc3ccc(F)cc3)nc(-c3cccnc3)nc21",
    "Tgt": "SK-OV-3 ovarian",
    "growth": "56.6% (inactive)"
  }
]

Then this compound:
Note to self: growth recorded for "CO[C@]12C=C/C(=C(/C(=O)OCc3cccnc3)C(=O)CCCCCCCC[C@@]3(OC)C=C/C(=C(/C(=O)OCc4cccnc4)C(=O)CCCCCCCC1)O3)O2" was 57.4% (inactive)

---

# System: OVCAR-4 ovarian
# Assay info: NCI-60 one-dose screen, 48 h
# Protocol conditions: 10 µM unless noted
# Experimental: Growth inhibition of the OVCAR-4 human tumor cell line is measured as a screen for anti-cancer activity. Cells are grown in 96 well plates and exposed to the test compound for 48 hours. Compounds are tested at a single concentration, which is 10^-5 M for most compounds. The reported endpoint is percent growth (GI% or GIPRCNT), where numbers from 0 - 100% represent growth inhibition, and numbers from -100% - 0 represent cell death. For example, a value of 40 represents 60% growth inhibition. […]
About 83,000 compounds went through this panel and 20% of them were active in at least one assay; those are over-represented in the sample as a whole. The source made the active and inactive calls. How the source made its calls: active means growth percent below 10; inactive means the rest.
Respond using exactly one of the listed classes: label 1 (active), label 0 (inactive)

Past entries and their recorded results:
[
  {
    "Compound": "Cc1ccc(-c2nc(/C=C3/C(=O)Nc4ccccc43)c3ccccn23)cc1",
    "Assigned class": "label 0"
  },
  {
    "Compound": "CCCC(O)Cn1ncc(C(=O)OCC)c1NC(=O)NCc1ccccc1F (stereo not given)",
    "Assigned class": "label 0"
  },
  {
    "Compound": "CCN(CC)CCSc1nc(-c2ccccc2)c(C#N)c(=O)[nH]1",
    "Assigned class": "label 0"
  },
  {
    "Compound": "CSc1nc2sc3c(c2c(=O)n1-c1ccc([N+](=O)[O-])cc1)CCCCC3",
    "Assigned class": "label 0"
  },
  {
    "Compound": "Cc1ccc(C(C(N)=O)C(C(N)=O)c2ccccc2)cc1 (stereo not given)",
    "Assigned class": "label 0"
  }
]

Then there is this compound:
Query string: Tell me the recorded outcome of this test for "c1cc2[nH]ncc2cc1-c1nc2ccc3[nH]ncc3c2c2c1CCCC2" .
Result string: label 0

---

# System: MDA-MB-231 breast
# Assay info: NCI-60 one-dose screen, 48 h
# Protocol conditions: 10 µM unless noted
About 83,000 compounds went through this panel and 20% of them were active in at least one assay; those are over-represented in the sample as a whole. Activity calls are given as the source filed them. How the source made its calls: active means growth percent below 10; inactive means the rest.
Respond using exactly one of the listed classes: 1 = active, -1 = inactive

[
  {
    "Sample smiles": "CCN(CC)c1nc(SCc2ccccc2Cl)ncc1C",
    "Assigned class": -1
  },
  {
    "Sample smiles": "CCN1CCN(Cc2cn(CC(=O)Nc3ccc4c(ccn4Cc4ccccc4)c3)nn2)CC1",
    "Assigned class": -1
  }
]

Query string: Tell me the recorded outcome of this test for "Fc1ccc2[nH]cc(-c3nonc3-c3c[nH]c4ccc(Br)cc34)c2c1" .
Result string: 1

Query string: Tell me the recorded outcome of this test for "O=C1NCCC12CCN(c1c(Cl)cncc1-c1ccc(O)cc1)CC2" .
Result string: -1

Query string: Tell me the recorded outcome of this test for "N#C/C(=C\c1ccc(-c2ccc(Cl)cc2)o1)C(=O)Nc1ncc(Cc2ccc(Cl)cc2)s1" .
Result string: -1

---

# System: NCI-H23 lung
# Assay info: NCI-60 one-dose screen, 48 h
# Protocol conditions: 10 µM unless noted
The panel holds about 83,000 compounds, 20% with a hit somewhere; the sample as a whole holds those more often. Calls of active or inactive are those of the source. Rule for the calls: active = growth percent below 10; inactive = the rest.
Respond using exactly one of the listed classes: active, inactive

[
  {
    "Molecule": "Cc1c(-n2nnc(-c3nc4ccccc4s3)c2N)c(=O)n(-c2ccccc2)n1C",
    "Tgt": "NCI-H23 lung",
    "Assigned class": "inactive"
  },
  {
    "Molecule": "O=C(CI)NC1Oc2ccccc2-c2oc(=O)c(-c3ccccc3)cc21 (centres undefined)",
    "Tgt": "NCI-H23 lung",
    "Assigned class": "active"
  },
  {
    "Molecule": "Cn1cccc1C(=O)C1C(c2cccc([N+](=O)[O-])c2)C2C3CCCCC3CN2C12C(=O)Nc1ccc(Cl)cc12 (centres undefined)",
    "Tgt": "NCI-H23 lung",
    "Assigned class": "inactive"
  },
  {
    "Molecule": "CCn1cc(C(=O)N/N=C/c2cccs2)c(=O)c2cc(F)c(N3CCNC(C)C3)c(F)c21 (centres undefined)",
    "Tgt": "NCI-H23 lung",
    "Assigned class": "inactive"
  }
]

Query string: Tell me the recorded outcome of this test for "c1ccc(CNc2c3ccccc3nc3ccccc23)cc1" .
Result string: inactive

Query string: Tell me the recorded outcome of this test for "N#Cc1c(-c2ccccc2)cc(-c2ccccc2)n(CCCCCC(=O)Nc2ccccc2N)c1=O" .
Result string: inactive

Query string: Tell me the recorded outcome of this test for "Clc1ccc2c(c1)N(c1ncnc3ccc(-c4cnc5[nH]ncc5c4)cc13)CC2" .
Result string: inactive

Query string: Tell me the recorded outcome of this test for "COC(=O)[C@]1(C)CCC[C@]2(C)[C@H]3C[C@H]4C(C(C)C)=C[C@]3(CC[C@H]21)[C@H]1[C@@H]4[C@@H](OCCC#N)CC[C@@H]1OCCC#N" .
Result string: inactive

Query string: Tell me the recorded outcome of this test for "N#Cc1cccc(F)c1" .
Result string: inactive

All figures here come from PubChem BioAssay (NCI).
